# EXPERIMENTAL_SYSTEM: recombinant full-length human GSK3β (Homo sapiens)
# Construct: recombinant full-length human GSK3β (Upstate); purchased Upstate
# Sequence (P49841 whole entry): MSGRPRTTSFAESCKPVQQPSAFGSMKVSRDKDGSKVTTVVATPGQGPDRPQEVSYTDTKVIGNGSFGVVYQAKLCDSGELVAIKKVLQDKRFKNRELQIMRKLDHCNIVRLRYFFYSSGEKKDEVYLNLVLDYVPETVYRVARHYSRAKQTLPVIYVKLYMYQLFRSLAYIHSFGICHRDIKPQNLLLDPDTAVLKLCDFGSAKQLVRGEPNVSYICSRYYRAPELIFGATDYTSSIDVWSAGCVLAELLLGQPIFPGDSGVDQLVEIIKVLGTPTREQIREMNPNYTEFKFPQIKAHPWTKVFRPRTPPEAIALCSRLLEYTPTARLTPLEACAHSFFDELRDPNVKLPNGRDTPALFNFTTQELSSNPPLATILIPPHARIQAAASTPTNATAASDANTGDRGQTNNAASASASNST
# MEASUREMENT_NOTES: Luciferase-coupled cell-free GSK3β kinase assay
# Type: biochemical
# RECORDED_CONDITIONS: Table 1
pIC50: −log10 of the molar value.

SMILES_DATA: Nc1c(F)c(NCCc2c[nH]c3ccccc23)c(F)c2c1c(=O)ccn2C1CC1
EXPERIMENTAL_SYSTEM: recombinant full-length human GSK3β (Homo sapiens)
pIC50: 6.30 to 7.00

SMILES_DATA: Nc1c(F)c(NCc2ccc(Cl)cc2)c(F)c2c1c(=O)c(C(=O)O)cn2C1CC1
EXPERIMENTAL_SYSTEM: recombinant full-length human GSK3β (Homo sapiens)
pIC50: 6.00 to 6.30

SMILES_DATA: Nc1c(F)c(NCCNc2cccc3ccccc23)c(F)c2c1c(=O)c(C(=O)O)cn2C1CCCC1
EXPERIMENTAL_SYSTEM: recombinant full-length human GSK3β (Homo sapiens)
pIC50: > 7.00

SMILES_DATA: Nc1c(F)c(NCCc2ccc(O)cc2)c(F)c2c1c(=O)c(C(=O)O)cn2C1CC1
EXPERIMENTAL_SYSTEM: recombinant full-length human GSK3β (Homo sapiens)
pIC50: 6.00 to 6.30

SMILES_DATA: COc1c(NCCc2ccncc2)c(F)c(N)c2c(=O)c(C(=O)O)cn(C3CC3)c12
EXPERIMENTAL_SYSTEM: recombinant full-length human GSK3β (Homo sapiens)
pIC50: 6.00 to 6.30

SMILES_DATA: N#Cc1ccc(NCCNc2c(F)c(N)c3c(=O)c(C(=O)O)cn(C4CC4)c3c2F)nc1
EXPERIMENTAL_SYSTEM: recombinant full-length human GSK3β (Homo sapiens)
pIC50: 6.30 to 7.00

SMILES_DATA: Nc1c(F)c(NCCNc2cccc3ccccc23)c(F)c2c1c(=O)c(C(=O)O)cn2CCc1ccccc1
EXPERIMENTAL_SYSTEM: recombinant full-length human GSK3β (Homo sapiens)
pIC50: 6.30 to 7.00

SMILES_DATA: Nc1c(F)c(NCCc2ccc(F)cc2F)c(F)c2c1c(=O)c(C(=O)O)cn2C1CC1
EXPERIMENTAL_SYSTEM: recombinant full-length human GSK3β (Homo sapiens)
pIC50: 6.30 to 7.00

====

Recorded pIC50, one value per entry.
# EXPERIMENTAL_SYSTEM: recombinant full-length human GSK3β (Homo sapiens)
# Construct: recombinant full-length human GSK3β (Upstate); purchased Upstate
# MEASUREMENT_NOTES: Luciferase-coupled cell-free GSK3β kinase assay
# Type: biochemical
# RECORDED_CONDITIONS: Table 1
pIC50: −log10 of the molar value.

MOLECULE: CC1COc2c(NCCCc3ccccc3)c(F)c(N)c3c(=O)c(C(=O)O)cn1c23 (centres unmarked)
pIC50: > 7.00
--
MOLECULE: Nc1ccc(CCNc2c(F)c(N)c3c(=O)c(C(=O)O)cn(C4CC4)c3c2F)cc1
pIC50: 6.00 to 6.30
--
MOLECULE: COc1c(NCCNc2cccc3ccccc23)c(F)c(N)c2c(=O)c(C(=O)O)cn(C3CC3)c12
pIC50: > 7.00
--
MOLECULE: Nc1c(F)c(NCCNc2ccccn2)c(F)c2c1c(=O)ccn2C1CC1
pIC50: 6.30 to 7.00
--
MOLECULE: CC(C)(C)OC(=O)NCCNc1c(F)c(N)c2c(=O)c(C(=O)O)cn(C3CC3)c2c1F
pIC50: 6.00 to 6.30
--
MOLECULE: Nc1c(F)c(NCCNC(=O)c2ccncc2)c(F)c2c1c(=O)c(C(=O)O)cn2C1CC1
pIC50: 6.00 to 6.30
--
MOLECULE: Nc1c(F)c(NCCc2ccc(Cl)cc2Cl)c(F)c2c1c(=O)ccn2C1CC1
pIC50: < 6.00
--
MOLECULE: Nc1c(F)c(NCCc2ccc(Cl)cc2)c(F)c2c1c(=O)c(C(=O)O)cn2C1CC1
pIC50: 6.30 to 7.00
--
MOLECULE: Nc1c(F)c(NCCc2ccc(F)cc2)c(F)c2c1c(=O)c(C(=O)O)cn2C1CC1
pIC50: 6.30 to 7.00
--
MOLECULE: Nc1ccc(CCNc2c(F)c(N)c3c(=O)ccn(C4CC4)c3c2F)cc1
pIC50: 6.00 to 6.30
--
MOLECULE: COc1c(NCCCc2ccccc2)c(F)c(N)c2c(=O)c(C(=O)O)cn(C3CCCC3)c12
pIC50: 6.30 to 7.00
--
MOLECULE: Nc1c(F)c(NCCCc2ccccc2)c(F)c2c1c(=O)ccn2C1CCCC1
pIC50: > 7.00
--
MOLECULE: Nc1cc(NCCNc2cccc3ccccc23)cc2c1c(=O)ccn2C1CC1
pIC50: > 7.00
--
MOLECULE: Nc1c(F)c(NCc2ccc(Cl)cc2)c(F)c2c1c(=O)ccn2C1CC1
pIC50: < 6.00

====

Recorded MIC, one value per entry.
# System: S. aureus Smith
# MEASUREMENT_NOTES: Antibacterial activity (MIC), S. aureus
# Format: cell-based
# RECORDED_CONDITIONS: Staphylococcus aureus, Table 2; S. aureus Smith; read-out: Antimicrobial MIC [μM] S. aureus
VALUE_KIND: MIC

MOLECULE: COc1c(NCCCn2ccnc2)c(F)c(N)c2c(=O)ccn(C3CC3)c12 [compound 2]
EXPERIMENTAL_SYSTEM: S. aureus Smith
VALUE_KIND: MIC
RECORDED_VALUE: > 50 µM
--
MOLECULE: C[C@H]1COc2c(NCCCN3CCCC3=O)c(F)c(N)c3c(=O)c(C(=O)O)cn1c23 [compound 23]
EXPERIMENTAL_SYSTEM: S. aureus Smith
VALUE_KIND: MIC
RECORDED_VALUE: 0.5 to 10 µM
--
MOLECULE: CC1(C)Cn2cc(C(=O)O)c(=O)c3c(N)c(F)c(NCCNc4ccccn4)c(c32)O1 [compound 57]
EXPERIMENTAL_SYSTEM: S. aureus Smith
VALUE_KIND: MIC
RECORDED_VALUE: 10 to 50 µM
--
MOLECULE: COc1c(NCCNc2ccc(C(=O)O)cn2)c(F)c(N)c2c(=O)c(C(=O)O)cn(C3CC3)c12 [Example 138]
EXPERIMENTAL_SYSTEM: S. aureus Smith
VALUE_KIND: MIC
RECORDED_VALUE: > 50 µM
--
MOLECULE: Nc1c(F)c(NCCNc2ccccn2)cc2c1c(=O)c(C(=O)O)cn2C1CC1 [Example 133]
EXPERIMENTAL_SYSTEM: S. aureus Smith
VALUE_KIND: MIC
RECORDED_VALUE: < 0.5 µM
--
MOLECULE: COc1c(NCCNc2ccccn2)c(F)c(N)c2c(=O)c(C(=O)O)c(C)n(C3CC3)c12 [Example 123]
EXPERIMENTAL_SYSTEM: S. aureus Smith
VALUE_KIND: MIC
RECORDED_VALUE: > 50 µM
--
MOLECULE: C[C@@H]1COc2c(NCCNc3ccccn3)c(F)c(N)c3c(=O)c(C(=O)O)cn1c23 [compound 30]
EXPERIMENTAL_SYSTEM: S. aureus Smith
VALUE_KIND: MIC
RECORDED_VALUE: > 50 µM
--
MOLECULE: CC1COc2c(NCCNc3cccc(C(F)(F)F)n3)c(F)c(N)c3c(=O)c(C(=O)O)cn1c23 (stereo not drawn) [compound 12]
EXPERIMENTAL_SYSTEM: S. aureus Smith
VALUE_KIND: MIC
RECORDED_VALUE: 0.5 to 10 µM
--
MOLECULE: CC(C)C[C@H]1COc2c(NCCCn3cnc4ccccc43)c(F)c(N)c3c(=O)c(C(=O)O)cn1c23 [compound 48]
EXPERIMENTAL_SYSTEM: S. aureus Smith
VALUE_KIND: MIC
RECORDED_VALUE: 10 to 50 µM
--
MOLECULE: COc1c(NCCNc2ccccn2)c(F)c(N)c2c(=O)c(C(=O)O)cn(Cc3ccccc3)c12 [Example 130]
EXPERIMENTAL_SYSTEM: S. aureus Smith
VALUE_KIND: MIC
RECORDED_VALUE: 0.5 to 10 µM
--
MOLECULE: C[C@H]1COc2c(NCCNc3ccccn3)c(F)c(N)c3c(=O)c(C(=O)O)cn1c23 [compound 18]
EXPERIMENTAL_SYSTEM: S. aureus Smith
VALUE_KIND: MIC
RECORDED_VALUE: 0.5 to 10 µM
--
MOLECULE: O=C(O)c1cn(C2CC2)c2c(F)c(NCCNc3ccccn3)c(F)c(S)c2c1=O [Example 131]
EXPERIMENTAL_SYSTEM: S. aureus Smith
VALUE_KIND: MIC
RECORDED_VALUE: 0.5 to 10 µM
--
MOLECULE: CC1(C)COc2c(NCCCc3ccccc3)c(F)c(N)c3c(=O)c(C(=O)O)cn1c23 [compound 38]
EXPERIMENTAL_SYSTEM: S. aureus Smith
VALUE_KIND: MIC
RECORDED_VALUE: 10 to 50 µM
--
MOLECULE: CC1(C)Cn2cc(C(=O)O)c(=O)c3c(N)c(F)c(NCCCn4cnc5ccccc54)c(c32)O1 [compound 56]
EXPERIMENTAL_SYSTEM: S. aureus Smith
VALUE_KIND: MIC
RECORDED_VALUE: 10 to 50 µM
--
MOLECULE: CC1COc2c(NCCNc3cc(F)cc(F)n3)c(F)c(N)c3c(=O)c(C(=O)O)cn1c23 (stereo not drawn) [compound 15]
EXPERIMENTAL_SYSTEM: S. aureus Smith
VALUE_KIND: MIC
RECORDED_VALUE: 0.5 to 10 µM
--
MOLECULE: CC1COc2c(NCCCN3CCCC3=O)c(F)c(N)c3c(=O)c(C(=O)O)cn1c23 (stereo not drawn) [compound 5]
EXPERIMENTAL_SYSTEM: S. aureus Smith
VALUE_KIND: MIC
RECORDED_VALUE: 0.5 to 10 µM
--
MOLECULE: CC(C)[C@H]1COc2c(NCCNc3ccccn3)c(F)c(N)c3c(=O)c(C(=O)O)cn1c23 [compound 60]
EXPERIMENTAL_SYSTEM: S. aureus Smith
VALUE_KIND: MIC
RECORDED_VALUE: 10 to 50 µM
--
MOLECULE: C[C@H]1COc2c(NCCCn3cnc4ccccc43)c(F)c(N)c3c(=O)c(C(=O)O)cn1c23 [compound 19]
EXPERIMENTAL_SYSTEM: S. aureus Smith
VALUE_KIND: MIC
RECORDED_VALUE: 0.5 to 10 µM
--
MOLECULE: CC(C)OCCCNc1c(F)c(N)c2c(=O)c(C(=O)O)cn3c2c1OCC3C (stereo not drawn) [compound 4]
EXPERIMENTAL_SYSTEM: S. aureus Smith
VALUE_KIND: MIC
RECORDED_VALUE: 0.5 to 10 µM
--
MOLECULE: CC(C)[C@@H]1COc2c(NCCCn3ccnc3)c(F)c(N)c3c(=O)c(C(=O)O)cn1c23 [compound 63]
EXPERIMENTAL_SYSTEM: S. aureus Smith
VALUE_KIND: MIC
RECORDED_VALUE: 10 to 50 µM
--
MOLECULE: CC(C)[C@H]1COc2c(NCCCn3ccnc3)c(F)c(N)c3c(=O)c(C(=O)O)cn1c23 [compound 54]
EXPERIMENTAL_SYSTEM: S. aureus Smith
VALUE_KIND: MIC
RECORDED_VALUE: 10 to 50 µM
